# assayMethodText: Photostability of UV absorber in gelatine layer on polyester base (Example 21)
# Format: physicochemical
# conditionDetails: 30 KJ exposure (kJ/cm^2)
Decision: ΔD in % >= 3% yields Met, all other cases yield Not met.

• CCCCCCCCCCCCc1cc(-n2nc3ccccc3n2)c(O)c(C(C)(C)c2ccccc2)c1 = Not met

# check: ΔD in % of CC(C)(c1ccccc1)c1cc(-n2nc3ccccc3n2)c(O)c(C(C)(C)c2ccccc2)c1 is greater than or equal to 3%
Not met

# check: ΔD in % of CCCCCCCCCCCCc1cc(C)cc(-n2nc3ccccc3n2)c1O is greater than or equal to 3%
Met

# check: ΔD in % of CCC(C)c1cc(C(C)(C)C)cc(-n2nc3ccccc3n2)c1O (stereo not drawn) is greater than or equal to 3%
Met

# check: ΔD in % of CCC(C)(C)c1cc(-n2nc3ccccc3n2)c(O)c(C(C)(C)CC)c1 is greater than or equal to 3%
Met

----------
# assayMethodText: Photostability of UV absorber in gelatine layer on polyester base (Example 21)
# Assay type: physicochemical
# conditionDetails: 60 KJ exposure (kJ/cm^2)
Record form. Attribute: ΔD in %. Fill in for each entry.
Answers are plain numbers, in %.

• CCC(C)(C)c1cc(-n2nc3ccccc3n2)c(O)c(C(C)(C)CC)c1 = 7
• CC(C)(C)CC(C)(C)c1cc(-n2nc3ccccc3n2)c(O)c(C(C)(C)c2ccccc2)c1 = 4
• CCCCCCCCCCCCc1cc(C)cc(-n2nc3ccccc3n2)c1O = 10
• CCCCCCCCCCCCc1cc(-n2nc3ccccc3n2)c(O)c(C(C)(C)c2ccccc2)c1 = 4
• CCC(C)c1cc(C(C)(C)C)cc(-n2nc3ccccc3n2)c1O (stereo not drawn) = 8

Consider the compound CC(C)(c1ccccc1)c1cc(-n2nc3ccccc3n2)c(O)c(C(C)(C)c2ccccc2)c1 . State its measured ΔD in %.
5

----------
Record form. Attribute: Solubility. Fill in for each entry.
# assayMethodText: Solubility of benzotriazole UV absorbers in organic solvents (percent solids of saturated filtrate, ASTM D 2369-81)
# conditionDetails: xylene
One number for each entry, in grams/100 solvent.

• CC(C)(c1ccccc1)c1cc(-n2nc3ccccc3n2)c(O)c(C(C)(C)c2ccccc2)c1 = 14

Batch request: Solubility for each of the following molecules.
1. CCC(C)(C)c1cc(-n2nc3ccccc3n2)c(O)c(C(C)(C)CC)c1
2. CC(C)(C)CC(C)(C)c1cc(-n2nc3ccccc3n2)c(O)c(C(C)(C)c2ccccc2)c1

[54, 76]

----------
Record form. Attribute: Solubility. Fill in for each entry.
# assayMethodText: Solubility of benzotriazole UV absorbers in organic solvents (percent solids of saturated filtrate, ASTM D 2369-81)
# conditionDetails: EXXATE ® 600 (hexyl acetate from Exxon)
Numbers only, in grams/100 solvent.

Here are 2 compounds together with their reported answers.
* CC(C)(c1ccccc1)c1cc(-n2nc3ccccc3n2)c(O)c(C(C)(C)c2ccccc2)c1 [UV absorber A] | 4
* CCC(C)(C)c1cc(-n2nc3ccccc3n2)c(O)c(C(C)(C)CC)c1 [UV absorber B] | 24

Next up:
Consider the compound CC(C)(C)CC(C)(C)c1cc(-n2nc3ccccc3n2)c(O)c(C(C)(C)c2ccccc2)c1 [Example 7] . State its measured Solubility.
22

----------
Record form. Attribute: ΔD in %. Fill in for each entry.
# assayMethodText: Photostability of UV absorber in gelatine layer on polyester base (Example 21)
# Assay type: physicochemical
# conditionDetails: 90 KJ exposure (kJ/cm^2)
# Description: The amount of UV absorber shown in the table below is dissolved in 2 ml of ethyl acetate. […] The sample is then exposed in an Arias exposure unit with a total of 30, 60, 90 and 120 kJ/cm^2, the maximum density is remeasured, and the difference (-ΔD in %) between the corresponding values is calculated.
One number for each entry, in %.

• CCC(C)(C)c1cc(-n2nc3ccccc3n2)c(O)c(C(C)(C)CC)c1 = 12
• CC(C)(C)CC(C)(C)c1cc(-n2nc3ccccc3n2)c(O)c(C(C)(C)c2ccccc2)c1 = 5
• CCC(C)c1cc(C(C)(C)C)cc(-n2nc3ccccc3n2)c1O (centres unmarked) = 16
• CCCCCCCCCCCCc1cc(C)cc(-n2nc3ccccc3n2)c1O = 17

Consider the molecule CCCCCCCCCCCCc1cc(-n2nc3ccccc3n2)c(O)c(C(C)(C)c2ccccc2)c1 . State its measured ΔD in %.
5

----------
Record form. Attribute: Dmax (maximum density in the range 330-380 nm). Fill in for each entry.
# assayMethodText: Photostability of UV absorber in gelatine layer on polyester base (Example 21)
# Type: physicochemical
# conditionDetails: before exposure, gelatine layer
One number for each entry.

Here are 5 molecules together with their reported answers.
* CCC(C)c1cc(C(C)(C)C)cc(-n2nc3ccccc3n2)c1O (stereo not drawn) [A] | 2.0
* CC(C)(C)CC(C)(C)c1cc(-n2nc3ccccc3n2)c(O)c(C(C)(C)c2ccccc2)c1 [E] | 2.0
* CCC(C)(C)c1cc(-n2nc3ccccc3n2)c(O)c(C(C)(C)CC)c1 [UV absorber B] | 2.1
* CCCCCCCCCCCCc1cc(C)cc(-n2nc3ccccc3n2)c1O [B] | 2.1
* CCCCCCCCCCCCc1cc(-n2nc3ccccc3n2)c(O)c(C(C)(C)c2ccccc2)c1 [Example 10] | 1.9

Next up:
Consider the molecule CC(C)(c1ccccc1)c1cc(-n2nc3ccccc3n2)c(O)c(C(C)(C)c2ccccc2)c1 [UV absorber A] . State its measured Dmax (maximum density in the range 330-380 nm).
1.9

----------
Record form. Attribute: Solubility. Fill in for each entry.
# assayMethodText: Solubility of benzotriazole UV absorbers in organic solvents (percent solids of saturated filtrate, ASTM D 2369-81)
# conditionDetails: PM acetate (1-methoxy-2-propyl acetate)
Numbers only, in grams/100 solvent.

Here are 2 compounds together with their reported answers.
* CC(C)(C)CC(C)(C)c1cc(-n2nc3ccccc3n2)c(O)c(C(C)(C)c2ccccc2)c1 | 14
* CCC(C)(C)c1cc(-n2nc3ccccc3n2)c(O)c(C(C)(C)CC)c1 | 10

Consider the compound CC(C)(c1ccccc1)c1cc(-n2nc3ccccc3n2)c(O)c(C(C)(C)c2ccccc2)c1 . State its measured Solubility.
3

----------
# assayMethodText: Solubility of benzotriazole UV absorbers in organic solvents (percent solids of saturated filtrate, ASTM D 2369-81)
# conditionDetails: butyl acetate
Record form. Attribute: Solubility. Fill in for each entry.

Batch request: Solubility for each of the following compounds.
1. CC(C)(c1ccccc1)c1cc(-n2nc3ccccc3n2)c(O)c(C(C)(C)c2ccccc2)c1
2. CC(C)(C)CC(C)(C)c1cc(-n2nc3ccccc3n2)c(O)c(C(C)(C)c2ccccc2)c1
3. CCCCCCCCCc1cc(-n2nc3ccccc3n2)c(O)c(C(C)(C)c2ccccc2)c1
4. CCCCCCCCCCCCc1cc(-n2nc3ccccc3n2)c(O)c(C(C)(C)c2ccccc2)c1
5. CCC(C)(C)c1cc(-n2nc3ccccc3n2)c(O)c(C(C)(C)CC)c1

1. 6 grams/100 solvent
2. 33 grams/100 solvent
3. > 50 grams/100 solvent
4. > 50 grams/100 solvent
5. 27 grams/100 solvent

----------
# assayMethodText: Photostability of UV absorber in gelatine layer on polyester base (Example 21)
# Type: physicochemical
# conditionDetails: 120 KJ exposure (kJ/cm^2)
Record form. Attribute: ΔD in %. Fill in for each entry.
Answers are plain numbers, in %.

* CCCCCCCCCCCCc1cc(-n2nc3ccccc3n2)c(O)c(C(C)(C)c2ccccc2)c1 | 8
* CC(C)(C)CC(C)(C)c1cc(-n2nc3ccccc3n2)c(O)c(C(C)(C)c2ccccc2)c1 | 7
* CCCCCCCCCCCCc1cc(C)cc(-n2nc3ccccc3n2)c1O | 25
* CCC(C)c1cc(C(C)(C)C)cc(-n2nc3ccccc3n2)c1O (centres unmarked) | 25

Consider the compound CCC(C)(C)c1cc(-n2nc3ccccc3n2)c(O)c(C(C)(C)CC)c1 . State its measured ΔD in %.
24

----------
# assayMethodText: Solubility of benzotriazole UV absorbers in organic solvents (percent solids of saturated filtrate, ASTM D 2369-81)
# conditionDetails: methyl amyl ketone
measurementName: Solubility

• CCCCCCCCCc1cc(-n2nc3ccccc3n2)c(O)c(C(C)(C)c2ccccc2)c1 [Example 4] = > 50 grams/100 solvent

Batch request: Solubility for each of the following compounds.
1. CC(C)(C)CC(C)(C)c1cc(-n2nc3ccccc3n2)c(O)c(C(C)(C)c2ccccc2)c1 [Example 7]
2. CCCCCCCCCCCCc1cc(-n2nc3ccccc3n2)c(O)c(C(C)(C)c2ccccc2)c1 [Example 10]
3. CCC(C)(C)c1cc(-n2nc3ccccc3n2)c(O)c(C(C)(C)CC)c1 [UV absorber B]
4. CC(C)(c1ccccc1)c1cc(-n2nc3ccccc3n2)c(O)c(C(C)(C)c2ccccc2)c1 [UV absorber A]

1: 33 grams/100 solvent; 2: > 50 grams/100 solvent; 3: 24 grams/100 solvent; 4: 4 grams/100 solvent

Source: patent US5574166A
